- Test system: Bovine Viral Diarrhea Virus (BVDV)
- test.method.notes: specificity: activity against BVDV
- Assay type: cell-based
- particulars: Bovine viral diarrhea virus isolates and strains; read-out: Specificity BVDV
For each record, write down the corresponding EC50.

For the compound CCCC(=O)Nc1cc(S(=O)(=O)N(CC)CC)ccc1OC [Compound 14] , report EC50.
> 50 µM

Return value of EC50 for input CC(C)N(C)S(=O)(=O)c1ccc(NC(=O)Cn2cnc3cc(F)ccc3c2=O)cc1 [Compound 7] , no commentary.
> 50 µM

Identify measured EC50 associated with CC(C)N(C)S(=O)(=O)c1ccc(NC(=O)Cn2cnc3ccc(Cl)cc3c2=O)cc1 [Compound 6]
64 µM

Supply measured EC50 of CCN(CC)S(=O)(=O)c1ccc(NC(=O)CN2C(=O)c3cccc4cccc(c34)C2=O)cc1 [Compound 9] in your reply.
> 50 µM

Give recorded EC50. CCN(CC)S(=O)(=O)c1ccc(NC(=O)Cn2cnc3c2c(=O)n(C)c(=O)n3C)cc1 [Compound 4]
> 50 µM

Read the entry CCN(CC)S(=O)(=O)c1ccc(NC(=O)Cn2[nH]c(=O)c3ccccc3c2=O)cc1 [Compound 8] and write its reported EC50.
> 50 µM

---

- System: Den-4
- test.method.notes: viral yield assay against Den-4
- Assay type: cell-based
- particulars: Dengue virus
parameter.measured: EC90 (µM)
Respond numerically; units are µM and should not be typed.

State its EC90 for this compound: CCN(CC)S(=O)(=O)c1ccc(OC)c(NC(=O)Cc2ccccc2)c1
6.4

For CCN(CC)S(=O)(=O)c1ccc(NC(=O)Cn2cnc3c2c(=O)n(C)c(=O)n3C)cc1 , write its EC90.
22.7

Identify EC90 associated with the compound CCN(CC)S(=O)(=O)c1ccc(OC)c(NC(=O)Cn2cnc3c2c(=O)n(C)c(=O)n3C)c1
9.2

Give the measured EC90 for CCN(CC)S(=O)(=O)c1ccc(NC(=O)Cn2nnc3ccccc3c2=O)cc1
10

Look up EC90 of CCN(CC)S(=O)(=O)c1ccc(NC(=O)Cn2cnc3ccccc3c2=O)cc1 and report it.
4.1

Return EC90 (reported value) for this compound: CCCC(=O)Nc1cc(S(=O)(=O)N(CC)CC)ccc1OC
11.1

Answer with the recorded EC90 for the compound listed here: CCCCC(=O)Nc1cc(S(=O)(=O)N(CC)CC)ccc1OC
12

Read off the recorded EC90 for CCN(CC)S(=O)(=O)c1ccc(OC)c(NC(=O)C(C)C)c1
12.5

Given CCN(CC)S(=O)(=O)c1ccc(C)c(NC(=O)Cn2cnc3cc([N+](=O)[O-])ccc3c2=O)c1 , respond with its EC90.
14.6

Given the compound CCN(CC)S(=O)(=O)c1ccc(OC)c(NC(=O)CC(C)C)c1 , write its reported EC90.
37.2

---

Assignment: determine reported EC50 for the given compounds.
- System: Den-1
- test.method.notes: viral yield assay against Den-1
- Assay type: cell-based
- particulars: Dengue virus
Give the value, in units of µM, as a plain number.

Report EC50 for CCN(CC)S(=O)(=O)c1ccc(NC(=O)Cn2cnc3ccccc3c2=O)cc1
4.3

Note EC50 for the compound shown: CCN(CC)S(=O)(=O)c1ccc(OC)c(NC(=O)C(C)C)c1
7.6

Supply EC50 value. Item: CCN(CC)S(=O)(=O)c1ccc(NC(=O)Cn2nnc3ccccc3c2=O)cc1
1.3

Fill in reported EC50 for this entry: CCN(CC)S(=O)(=O)c1ccc(OC)c(NC(=O)Cn2cnc3c2c(=O)n(C)c(=O)n3C)c1
7.1

Sourced from patent US9353051B2
